Could you please report measured EC50 for the items listed next?
molecular target: T1, human folate receptor alpha (hFRα), recombinant protein (human, UniProt P15328 25-233); assay: ELISA on recombinant human FOLR1, cMyc tag detection, normalised binding, non-linear fit
T1 construct: Bought recombinant proteins (His-tagged, or biotinylated via Avi-tag, e.g. AcroBiosystems FO1-H82E2, F01-H52H1); also called hFOLR1; huFOLR1
T1 sequence (P15328 25-233 limits assumed): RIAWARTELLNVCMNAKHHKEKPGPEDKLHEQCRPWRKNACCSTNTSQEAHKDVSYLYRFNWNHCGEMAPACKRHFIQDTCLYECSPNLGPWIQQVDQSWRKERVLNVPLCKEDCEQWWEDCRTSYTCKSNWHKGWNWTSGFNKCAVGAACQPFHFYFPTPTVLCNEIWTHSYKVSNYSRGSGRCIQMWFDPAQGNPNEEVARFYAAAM
Report the figure in nM without appending any unit label.

Request: For the binder shown here, VHH 3MFR60 (family 10) (VHH) VHH: QVQLQESGGGLVQAGGSLRVSCAASGIIFSMNGMGWFRQAPGKQRELVASITSGGSTKYADSVKGRFTISRDNAKNTVYLQMNSLKPEDTAVYYCNIQFGSRWSTYWGQGTQVTVSS , give the reported EC50.
Response: 11.1

Request: How about VHH 3HFO26 (family 1) (VHH) VHH: QVQLQESGGGLVQPGGSLRITCVASGFPFSTYYMSWVRQAPGKGLEWVSGINSNGGVIDYADSVKGRFTISRDNAKNTLYLQLNSLKPEDTALYFCARGRAFVATMPSSLRGQGTQVTVSS ?
Response: 20.3

Request: Also VHH 2MFR7 (family 1) (VHH, also called 2MFRO7) VHH: QVQLQESGGGLVQPGGSLRLSCAASGFPFSTYYMSWVRQAPGKGLEWVSGINSNGGVIDYADSVKGRFTISRDNAKNTLYLQLNSLKPEDTALYFCARGRAFVATMPSSLRGQGTQVTVSS , if possible.
Response: 11.6

Request: Param item: VHH 2HFO42 (family 3) (VHH, also called 2HF042; Nb42) VHH: QVQLQESGGGLVQAGGSLRLSCAASGSGFSGMIMGWYRQVPGKQRELVATVTSHGTTNYADSVKGRFTISRDNAKNTVLLQMNSLKPEDTAVYYCNAHFPGIYWGKGTQVTVSS
Response: 10.4

Request: Same lookup for VHH 3HFO28 (family 7) (VHH) VHH: QVQLQESGGGLVQPGGSLRLSCAASGSTLDRYEIGWFRQAPGKGRERVSCISTTSSTYEDSVKGRFTISRDNAKNTVYLQMNSLKPEDTAVYYCATVRVAWSTCFPTGDSWGKGTQVTVSS , please.
Response: 1.5

These entries and their values trace back to patent US20250304677A1.
